# SYSTEM_UNDER_TEST: T1, human CD3 (human, UniProt P07766 23-207; P09693 23-182; P04234 22-171)
# T1 construct: whole, on cells; also called CD3 on Jurkat T cells; CD3 on primary human T cells
# TEST_DESCRIPTION: flow competition on Jurkat, 100 nM unlabeled mAb; competitor AF488-OKT-3 mIgG2b 1.5 nM
What % residual fluorescence of labeled mAb was measured for each of the following?
Answers are plain numbers, in %.

# BINDER, OUTPUT_UNIT, % residual fluorescence of labeled mAb
data = [
    ("F332-7C9 (antibody, mouse IgG2a, V domains shown, also called F332-7C9-2; F332-7C9 (5C7, 7D10)) VH: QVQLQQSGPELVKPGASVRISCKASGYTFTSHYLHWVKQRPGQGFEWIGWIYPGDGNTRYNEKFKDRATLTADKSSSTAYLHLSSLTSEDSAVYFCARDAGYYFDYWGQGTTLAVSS VL: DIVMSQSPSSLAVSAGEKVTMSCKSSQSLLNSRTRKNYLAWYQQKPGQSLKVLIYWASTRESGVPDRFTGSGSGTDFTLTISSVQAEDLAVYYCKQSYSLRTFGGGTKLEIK", "%", 82),
]

Dear reader, for each entry below, please note its % residual fluorescence of labeled mAb.
1. F332-7C5 (antibody, mouse IgG2a, V domains shown, also called F332-7C5-2; F332-7C5 (5E12, 10A8)) VH: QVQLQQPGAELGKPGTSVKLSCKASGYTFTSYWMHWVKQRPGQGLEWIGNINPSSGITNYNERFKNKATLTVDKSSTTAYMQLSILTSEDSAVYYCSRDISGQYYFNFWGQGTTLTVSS VL: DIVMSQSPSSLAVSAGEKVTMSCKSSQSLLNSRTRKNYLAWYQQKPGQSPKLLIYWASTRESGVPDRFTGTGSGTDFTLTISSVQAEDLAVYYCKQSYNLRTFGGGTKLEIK
2. F332-1C9 (antibody, mouse IgG2a, V domains shown, Sister clones 1A10, 5H8, 8B11 share the same entries; also called F332-1C9-2; F332-1C9 (1A10, 5H8, 8B11)) VH: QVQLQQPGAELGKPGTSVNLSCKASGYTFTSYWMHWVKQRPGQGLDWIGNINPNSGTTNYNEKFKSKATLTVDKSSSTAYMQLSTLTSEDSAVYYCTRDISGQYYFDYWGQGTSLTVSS VL: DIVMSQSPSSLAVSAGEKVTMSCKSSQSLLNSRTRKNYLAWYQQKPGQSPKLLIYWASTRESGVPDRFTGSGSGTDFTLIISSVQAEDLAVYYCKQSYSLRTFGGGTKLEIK
3. F332-5D4 (antibody, mouse IgG2b, V domains shown, also called F332-5D4-2; F332-5D4 (5F8)) VH: QVQLQQPGAELGKPGTSVKLSCKASGYTFTSYWMHWVKQRPGQGLEWIGNINPNGGDSNYNEKFKSKATLTVDMSSSTAYMQLSTLTSEDSAVYYCTRDISGQYYFDFWGQGTSLTVFS VL: DILMSQSPSSLAVSAGEQVTMSCKSSQSLLNSRTRKNYLAWYQQKPGQSPKLLIFWASTRKSGVPDRFTGSGSGTYFTLTINSVQTEDLAVYYCTQSYSLRTFGGGTKLEIK
4. F332-13B4 (antibody, mouse IgG2a, V domains shown, also called F332-13B4-2) VH: QVQLQQSGPELVKPGASVKISCKASGYSFTNSYVHWVKQTPGQGLEWIGWIYPGSTNIKYNEKFKGKATLTADTSSSTVYMQLSSLTSEDSAVYFCARDGSYFFDYWGQGTTLTVSS VL: DIVMSQSPSSLAVSAGEKVTMTCKSSQSLLNSRTRKNYLAWYQQKPGQSPKLLIYWASTRESGVPDRFTGSGSGTDFTLTISSVQAEDLAVYYCKQSYILRTFGGGTKLEIK

[79, 89, 93, 79]
